Give kon for every item shown.
Target: T1, Human CD27 ECD truncated (ECD 1-121, cleavage site, His6) (human)
T1 construct: also called human CD27 ECD with His Tag; CD27-His
T1 chain: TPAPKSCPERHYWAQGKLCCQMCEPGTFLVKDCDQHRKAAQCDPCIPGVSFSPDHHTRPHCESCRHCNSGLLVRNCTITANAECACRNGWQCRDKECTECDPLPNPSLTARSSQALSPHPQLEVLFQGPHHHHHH
Test: ProteOn SPR, purified mAb, CD27-His

# query: kon of entry M669 (antibody, V domains shown, isotype not restated (path 2); also called H256,L266) VH: QVQLVQSGAEVKKPGASVKVSCKASGYAFSSSWMNWVRQAPGQGLEWMGRIYSGDADTNYNQKFKGRVTMTRDTSTSTVYMELSSLRSEDTAVYYCARSDYYGDYGFAYWGQGTLVTVSS VL: DIQMTQSPSSLSASVGDRVTITCKASQSVDYAGESFMNWYQQKPGKAPKLLIYAASNLESGVPSRFSGSGSGTDFTLTISSLQPEDFATYYCQQSNEDPYTFGQGTKVEIK 2.49e+06 M⁻¹ s⁻¹

I have this binder here, M668 (antibody, V domains shown, isotype not restated (path 2); also called H255,L266) VH: QVQLVQSGAEVKKPGASVKVSCKASGYAFSSSWMNWVRQAPGQGLEWMGRIYSGDADTNYAQKFKGRVTMTRDTSTSTVYMELSSLRSEDTAVYYCARSDYYGDYGFAYWGQGTLVTVSS VL: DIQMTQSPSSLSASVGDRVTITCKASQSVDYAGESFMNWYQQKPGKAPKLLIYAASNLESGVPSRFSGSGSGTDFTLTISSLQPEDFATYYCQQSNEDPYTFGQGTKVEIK , and I need its recorded kon. 2.14e+06 M⁻¹ s⁻¹

Consider the binder M160 (antibody, human IgG4, V domains shown, also called H196,L219) VH: QVQLVQSGAEVKKPGASVKVSCKASGYAFSSSWMNWVRQAPGQGLEWMGRIYSGDGDTNYNGKFKGRVTMTRDTSTSTVYMELSSLRSEDTAVYYCARSDYYGDYGFAYWGQGTLVTVSS VL: DIQMTQSPSSLSASVGDRVTITCKASQSVDYAGDSFMNWYQQKPGKAPKLLIYAASNLESGVPSRFSGSGSGTDFTLTISSLQPEDFATYYCQQSNEDPYTFGQGTKVEIK and give its measured kon. 2.07e+06 M⁻¹ s⁻¹

Param item = M166 (antibody, human IgG4, V domains shown, also called H196,L217) VH: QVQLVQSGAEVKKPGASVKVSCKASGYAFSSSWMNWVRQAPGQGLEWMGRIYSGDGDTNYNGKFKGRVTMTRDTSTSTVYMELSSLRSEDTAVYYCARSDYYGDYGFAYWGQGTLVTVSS VL: DIQMTQSPSSLSASVGDRVTITCKASQSVDYAHESFMNWYQQKPGKAPKLLIYAASNLESGVPSRFSGSGSGTDFTLTISSLQPEDFATYYCQQSNEDPYTFGQGTKVEIK ; retrieve measured kon. 1.84e+06 M⁻¹ s⁻¹
